# system: Fructose-bisphosphate aldolase (Mycobacterium tuberculosis (strain ATCC 25618 / H37Rv)) (UniProt P9WQA3)
# Sequence (P9WQA3 whole entry, looked up): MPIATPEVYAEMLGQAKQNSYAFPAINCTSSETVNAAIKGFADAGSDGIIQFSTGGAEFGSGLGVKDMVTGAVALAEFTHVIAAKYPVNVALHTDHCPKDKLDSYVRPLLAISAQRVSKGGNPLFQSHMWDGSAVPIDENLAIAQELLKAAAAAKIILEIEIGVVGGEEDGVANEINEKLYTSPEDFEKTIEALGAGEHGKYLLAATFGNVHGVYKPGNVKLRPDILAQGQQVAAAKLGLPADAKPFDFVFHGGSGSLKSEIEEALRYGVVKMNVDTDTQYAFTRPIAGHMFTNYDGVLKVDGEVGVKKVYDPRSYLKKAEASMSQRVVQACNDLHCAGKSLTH
# protocol.notes: M. tuberculosis aldolase blockers, biochemical, fluorescence, strain H37Rv, confirmation (AID 651616);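 note: 0% = vehicle wells and 100% = reference inhibitor wells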
# test.parameters: purified M. tuberculosis FBA, fluorescence read-out, at 1 µM, active compounds read high
The campaign covered roughly 5,600 compounds. About 4,400 (79%) were called active. The set was probably picked from earlier hits. The list is a sample of the results.
property.label: inhibition (%)
Report the figure in % without appending any unit label.

Prompt line: Which inhibition is reported for this compound? CC(Nc1nc(N2CCOCC2)nc2ccccc12)c1ccccc1 (stereo unspecified)
Response line: 56.5

Prompt line: Which inhibition is reported for this compound? CCCn1nc2cc(C(=O)NCc3ccccc3)ccc2c1OCC
Response line: -3.79

Prompt line: Which inhibition is reported for this compound? Cc1cccc(NC(=O)c2sc3nc(N4CCOCC4)c4c(c3c2N)CCCC4)c1
Response line: 108

Prompt line: Which inhibition is reported for this compound? CC(C)=NN1C(=O)c2ccccc2NC1(C)C
Response line: 178

Prompt line: Which inhibition is reported for this compound? CS(=O)(=O)Nc1ccc(C2=NN(S(C)(=O)=O)C(c3cccs3)C2)cc1 (stereo unspecified)
Response line: 2.17

Prompt line: Which inhibition is reported for this compound? O=C(Nc1nncs1)c1ccccc1NS(=O)(=O)c1cccs1
Response line: 141

Prompt line: Which inhibition is reported for this compound? Cc1cc(C)c2c(n1)sc1c(=O)n(-c3ccccc3)c(=O)[nH]c12
Response line: 75.8

Prompt line: Which inhibition is reported for this compound? COc1cccc2sc3cc(NCC[C@@H]4CCCN4C)ccc3c(=O)c12
Response line: 77.9

Prompt line: Which inhibition is reported for this compound? CCOc1c2ccc(C(=O)NCc3ccc(OC(F)(F)F)cc3)cc2nn1C
Response line: 106

Prompt line: Which inhibition is reported for this compound? N#Cc1c(N2CCCCC2)nc(N)c2c(N)nc(SCC(=O)O)cc12
Response line: 11.2

Prompt line: Which inhibition is reported for this compound? CCNC(=S)Nc1ccc2c(c1)c(=O)n(C)n2Cc1ccc(Cl)cc1
Response line: 3.5
